Parameter Dmax: see the listing below.
Target: p300 (Homo sapiens, UniProt Q09472)
Construct: host or cells: A549 P300 HiBit cells
Sequence (Q09472 whole entry): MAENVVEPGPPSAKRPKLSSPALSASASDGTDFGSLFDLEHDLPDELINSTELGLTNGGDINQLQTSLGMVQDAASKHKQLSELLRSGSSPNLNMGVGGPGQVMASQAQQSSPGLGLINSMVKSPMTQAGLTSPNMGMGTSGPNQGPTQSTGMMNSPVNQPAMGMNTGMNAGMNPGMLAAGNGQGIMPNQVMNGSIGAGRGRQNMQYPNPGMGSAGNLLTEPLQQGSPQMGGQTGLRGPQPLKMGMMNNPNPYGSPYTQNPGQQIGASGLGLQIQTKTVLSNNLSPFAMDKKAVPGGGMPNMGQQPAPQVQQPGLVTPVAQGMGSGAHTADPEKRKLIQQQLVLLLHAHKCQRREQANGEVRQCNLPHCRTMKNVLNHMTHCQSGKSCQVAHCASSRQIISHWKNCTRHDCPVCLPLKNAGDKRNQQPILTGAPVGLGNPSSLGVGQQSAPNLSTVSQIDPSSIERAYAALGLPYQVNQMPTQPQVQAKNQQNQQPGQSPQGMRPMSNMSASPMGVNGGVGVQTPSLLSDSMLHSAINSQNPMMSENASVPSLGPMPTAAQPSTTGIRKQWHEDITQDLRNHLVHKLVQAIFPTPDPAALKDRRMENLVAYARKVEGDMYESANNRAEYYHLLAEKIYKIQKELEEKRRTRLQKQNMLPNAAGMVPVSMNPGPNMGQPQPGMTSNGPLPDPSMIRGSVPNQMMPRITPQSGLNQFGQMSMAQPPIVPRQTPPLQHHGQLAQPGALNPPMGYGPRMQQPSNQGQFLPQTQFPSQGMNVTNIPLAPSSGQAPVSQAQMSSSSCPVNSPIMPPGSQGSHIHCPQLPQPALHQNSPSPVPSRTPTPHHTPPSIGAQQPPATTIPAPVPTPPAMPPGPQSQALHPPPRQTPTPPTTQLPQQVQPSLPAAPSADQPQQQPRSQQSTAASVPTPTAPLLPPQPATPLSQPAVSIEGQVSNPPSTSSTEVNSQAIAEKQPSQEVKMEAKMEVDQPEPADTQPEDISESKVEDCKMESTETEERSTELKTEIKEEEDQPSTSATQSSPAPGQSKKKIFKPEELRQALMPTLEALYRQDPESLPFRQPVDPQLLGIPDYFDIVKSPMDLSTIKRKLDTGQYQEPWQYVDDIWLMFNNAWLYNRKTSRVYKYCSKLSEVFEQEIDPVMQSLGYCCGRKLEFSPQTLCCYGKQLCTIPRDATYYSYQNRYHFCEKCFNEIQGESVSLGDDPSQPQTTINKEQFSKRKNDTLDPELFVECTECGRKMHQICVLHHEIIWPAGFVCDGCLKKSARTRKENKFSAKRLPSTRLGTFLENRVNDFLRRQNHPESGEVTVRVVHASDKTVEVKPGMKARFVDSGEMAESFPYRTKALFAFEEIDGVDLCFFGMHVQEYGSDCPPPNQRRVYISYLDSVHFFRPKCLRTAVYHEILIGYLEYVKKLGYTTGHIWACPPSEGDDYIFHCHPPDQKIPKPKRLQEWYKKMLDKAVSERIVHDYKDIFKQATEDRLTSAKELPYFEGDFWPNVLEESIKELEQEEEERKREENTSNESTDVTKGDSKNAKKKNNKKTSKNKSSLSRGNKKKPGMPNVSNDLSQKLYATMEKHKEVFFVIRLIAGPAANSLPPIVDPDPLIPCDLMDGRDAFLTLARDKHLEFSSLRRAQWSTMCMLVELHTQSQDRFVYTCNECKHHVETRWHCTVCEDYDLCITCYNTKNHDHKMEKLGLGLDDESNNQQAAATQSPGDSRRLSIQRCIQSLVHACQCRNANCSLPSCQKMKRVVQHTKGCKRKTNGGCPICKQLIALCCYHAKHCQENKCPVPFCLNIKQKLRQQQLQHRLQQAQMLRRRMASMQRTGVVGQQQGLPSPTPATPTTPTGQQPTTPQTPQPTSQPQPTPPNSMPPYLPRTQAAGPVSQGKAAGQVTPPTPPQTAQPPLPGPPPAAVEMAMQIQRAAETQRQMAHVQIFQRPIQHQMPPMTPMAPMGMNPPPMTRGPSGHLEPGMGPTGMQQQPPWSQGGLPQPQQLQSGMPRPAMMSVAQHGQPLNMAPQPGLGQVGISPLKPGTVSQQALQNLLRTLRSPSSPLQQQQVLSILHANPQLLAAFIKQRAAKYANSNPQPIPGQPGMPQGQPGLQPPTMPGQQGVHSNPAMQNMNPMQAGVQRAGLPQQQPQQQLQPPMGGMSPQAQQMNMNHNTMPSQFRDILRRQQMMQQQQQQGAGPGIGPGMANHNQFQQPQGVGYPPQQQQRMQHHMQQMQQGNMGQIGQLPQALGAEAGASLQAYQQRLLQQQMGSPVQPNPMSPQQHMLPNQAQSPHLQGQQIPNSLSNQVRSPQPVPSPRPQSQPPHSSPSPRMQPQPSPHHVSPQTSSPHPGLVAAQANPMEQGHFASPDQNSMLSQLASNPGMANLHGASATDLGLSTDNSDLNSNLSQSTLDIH
Test: P300 degradation, HiBit technology in A549 P300 HiBit cells (2 h)
Format: cell-based
Conditions: A549, A549 P300 HiBit cells, 2 hrs post treatment

>  <COMPOUND>
Cc1cc(-c2cc3c(cn2)N(c2cccc4c2cc(C)c(=O)n4C)CCO3)cnc1C(=O)NCC#Cc1ccc2occ(C3CCC(=O)NC3=O)c2c1 (centres unmarked)

>  <Dmax>
> 80%

$$$$
>  <COMPOUND>
Cc1cc(-c2cnc(N(C)c3cc(C4CCOCC4)c4c(c3)n(C)c(=O)n4C)cn2)cnc1C(=O)NCC#Cc1ccc2occ(C3CCC(=O)NC3=O)c2c1 (centres unmarked)

>  <Dmax>
> 80%

$$$$
>  <COMPOUND>
Cn1c(=O)n(C)c2c(N3CCOCC3)nc(-c3cccc4cc(-c5ccc(C(=O)NCC#Cc6cc7c(C8CCC(=O)NC8=O)nccc7o6)nc5)ncc34)cc21 (centres unmarked)

>  <Dmax>
> 80%

$$$$

[in] Notebook entry, p300 (Homo sapiens, UniProt Q09472) assay: Dmax of Cc1cc2c(N3CCCc4cc(-c5ccc(C(=O)NCC#Cc6ccc7occ(C8CCC(=O)NC8=O)c7c6)nc5)ccc43)cc(C3CCOCC3)cc2n(C)c1=O (centres unmarked) = ?
[out] 60 to 79%

* * *

Parameter DC50: see the listing below.
Target: p300 (Homo sapiens, UniProt Q09472)
Construct: host or cells: A549 P300 HiBit cells
Assay: P300 degradation, HiBit technology in A549 P300 HiBit cells (2 h)
Assay type: cell-based
Conditions: A549 P300 HiBit cells, 2 hrs post treatment

Examples with their reported DC50 follow.
>  <MOLECULE>
Cc1nc(-c2cnc(N(C)c3cc(C4CCOCC4)c4c(c3)n(C)c(=O)n4C)cn2)cnc1C(=O)NCC#Cc1cc2c(C3CCC(=O)NC3=O)cccc2o1 (stereo not drawn)

>  <DC50>
1 to 9.9 nM

$$$$
>  <MOLECULE>
Cc1cc(-c2ncc3c(n2)OCCN3c2cnc3c(c2)n(C)c(=O)n3C)cnc1C(=O)NCC#Cc1ccc2occ(C3CCC(=O)NC3=O)c2c1 (stereo not drawn)

>  <DC50>
1 to 9.9 nM

$$$$
>  <MOLECULE>
Cc1cc2c(N3CCOc4cc(-c5ccc(C(=O)NCC#Cc6ccc7occ(C8CCC(=O)NC8=O)c7c6)nc5)ncc43)cccc2n(C)c1=O (stereo not drawn)

>  <DC50>
1 to 9.9 nM

$$$$
>  <MOLECULE>
Cc1cc(-c2ncc3c(n2)CCCN3c2cc(C3CCOCC3)cc3c2cc(C)c(=O)n3C)cnc1C(=O)NCC#Cc1cc2c(C3CCC(=O)NC3=O)cccc2o1 (stereo not drawn)

>  <DC50>
< 1 nM

$$$$
>  <MOLECULE>
Cc1cc(=O)n(C)c2cc(C3CCOCC3)cc(N3CCCc4nc(-c5ccc(C(=O)NCC#Cc6ccc7occ(C8CCC(=O)NC8=O)c7c6)nc5)ncc43)c12 (stereo not drawn)

>  <DC50>
> 1000 nM

$$$$

For the next question, use this molecule.
[in] Find the recorded DC50 belonging to Cc1cc2c(N3CCCc4nc(-c5ccc(C(=O)NCC#Cc6cc7c([C@H]8CCC(=O)NC8=O)cccc7o6)nc5)ncc43)cc(C3CCOCC3)cc2n(C)c1=O and report it.
[out] < 1 nM

* * *

Molecular target: CBP (Homo sapiens)
Construct: host or cells: A549 CBP HiBit cells
Test: CBP degradation, HiBit technology in A549 CBP HiBit cells (24 h)
Format: cell-based
Details: 24 hrs post treatment
Parameter Dmax: see the listing below.

Examples with their reported Dmax follow.
>  <COMPOUND>
Cc1cc(-c2ccc(N(C)c3cc(C(C)C)c4c(c3)n(C)c(=O)n4C)cn2)cnc1C(=O)NCC#Cc1cccc(NC2CCC(=O)NC2=O)c1 (stereo not drawn) [Example A34]

>  <Dmax>
< 20%

$$$$
>  <COMPOUND>
Cn1c(=O)n(C)c2cc(C3=CC(C)(C)Oc4cc(-c5ccc(C(=O)NCC#Cc6cc7c(C8CCC(=O)NC8=O)cccc7o6)nc5)ncc43)ccc21 (stereo not drawn) [Example A259]

>  <Dmax>
< 20%

$$$$

[in] Find the recorded Dmax belonging to CCN(c1cnc(-c2cnc(C(=O)NCC#Cc3ccc4occ(C5CCC(=O)NC5=O)c4c3)c(C)c2)nc1)c1cc(C(C)C)c2c(c1)n(C)c(=O)n2C (stereo not drawn) [Example A70] and report it.
[out] < 20%

* * *

Target: CBP (Homo sapiens, UniProt Q92793)
Construct: host or cells: A549 CBP HiBit cells
Sequence (Q92793 whole entry): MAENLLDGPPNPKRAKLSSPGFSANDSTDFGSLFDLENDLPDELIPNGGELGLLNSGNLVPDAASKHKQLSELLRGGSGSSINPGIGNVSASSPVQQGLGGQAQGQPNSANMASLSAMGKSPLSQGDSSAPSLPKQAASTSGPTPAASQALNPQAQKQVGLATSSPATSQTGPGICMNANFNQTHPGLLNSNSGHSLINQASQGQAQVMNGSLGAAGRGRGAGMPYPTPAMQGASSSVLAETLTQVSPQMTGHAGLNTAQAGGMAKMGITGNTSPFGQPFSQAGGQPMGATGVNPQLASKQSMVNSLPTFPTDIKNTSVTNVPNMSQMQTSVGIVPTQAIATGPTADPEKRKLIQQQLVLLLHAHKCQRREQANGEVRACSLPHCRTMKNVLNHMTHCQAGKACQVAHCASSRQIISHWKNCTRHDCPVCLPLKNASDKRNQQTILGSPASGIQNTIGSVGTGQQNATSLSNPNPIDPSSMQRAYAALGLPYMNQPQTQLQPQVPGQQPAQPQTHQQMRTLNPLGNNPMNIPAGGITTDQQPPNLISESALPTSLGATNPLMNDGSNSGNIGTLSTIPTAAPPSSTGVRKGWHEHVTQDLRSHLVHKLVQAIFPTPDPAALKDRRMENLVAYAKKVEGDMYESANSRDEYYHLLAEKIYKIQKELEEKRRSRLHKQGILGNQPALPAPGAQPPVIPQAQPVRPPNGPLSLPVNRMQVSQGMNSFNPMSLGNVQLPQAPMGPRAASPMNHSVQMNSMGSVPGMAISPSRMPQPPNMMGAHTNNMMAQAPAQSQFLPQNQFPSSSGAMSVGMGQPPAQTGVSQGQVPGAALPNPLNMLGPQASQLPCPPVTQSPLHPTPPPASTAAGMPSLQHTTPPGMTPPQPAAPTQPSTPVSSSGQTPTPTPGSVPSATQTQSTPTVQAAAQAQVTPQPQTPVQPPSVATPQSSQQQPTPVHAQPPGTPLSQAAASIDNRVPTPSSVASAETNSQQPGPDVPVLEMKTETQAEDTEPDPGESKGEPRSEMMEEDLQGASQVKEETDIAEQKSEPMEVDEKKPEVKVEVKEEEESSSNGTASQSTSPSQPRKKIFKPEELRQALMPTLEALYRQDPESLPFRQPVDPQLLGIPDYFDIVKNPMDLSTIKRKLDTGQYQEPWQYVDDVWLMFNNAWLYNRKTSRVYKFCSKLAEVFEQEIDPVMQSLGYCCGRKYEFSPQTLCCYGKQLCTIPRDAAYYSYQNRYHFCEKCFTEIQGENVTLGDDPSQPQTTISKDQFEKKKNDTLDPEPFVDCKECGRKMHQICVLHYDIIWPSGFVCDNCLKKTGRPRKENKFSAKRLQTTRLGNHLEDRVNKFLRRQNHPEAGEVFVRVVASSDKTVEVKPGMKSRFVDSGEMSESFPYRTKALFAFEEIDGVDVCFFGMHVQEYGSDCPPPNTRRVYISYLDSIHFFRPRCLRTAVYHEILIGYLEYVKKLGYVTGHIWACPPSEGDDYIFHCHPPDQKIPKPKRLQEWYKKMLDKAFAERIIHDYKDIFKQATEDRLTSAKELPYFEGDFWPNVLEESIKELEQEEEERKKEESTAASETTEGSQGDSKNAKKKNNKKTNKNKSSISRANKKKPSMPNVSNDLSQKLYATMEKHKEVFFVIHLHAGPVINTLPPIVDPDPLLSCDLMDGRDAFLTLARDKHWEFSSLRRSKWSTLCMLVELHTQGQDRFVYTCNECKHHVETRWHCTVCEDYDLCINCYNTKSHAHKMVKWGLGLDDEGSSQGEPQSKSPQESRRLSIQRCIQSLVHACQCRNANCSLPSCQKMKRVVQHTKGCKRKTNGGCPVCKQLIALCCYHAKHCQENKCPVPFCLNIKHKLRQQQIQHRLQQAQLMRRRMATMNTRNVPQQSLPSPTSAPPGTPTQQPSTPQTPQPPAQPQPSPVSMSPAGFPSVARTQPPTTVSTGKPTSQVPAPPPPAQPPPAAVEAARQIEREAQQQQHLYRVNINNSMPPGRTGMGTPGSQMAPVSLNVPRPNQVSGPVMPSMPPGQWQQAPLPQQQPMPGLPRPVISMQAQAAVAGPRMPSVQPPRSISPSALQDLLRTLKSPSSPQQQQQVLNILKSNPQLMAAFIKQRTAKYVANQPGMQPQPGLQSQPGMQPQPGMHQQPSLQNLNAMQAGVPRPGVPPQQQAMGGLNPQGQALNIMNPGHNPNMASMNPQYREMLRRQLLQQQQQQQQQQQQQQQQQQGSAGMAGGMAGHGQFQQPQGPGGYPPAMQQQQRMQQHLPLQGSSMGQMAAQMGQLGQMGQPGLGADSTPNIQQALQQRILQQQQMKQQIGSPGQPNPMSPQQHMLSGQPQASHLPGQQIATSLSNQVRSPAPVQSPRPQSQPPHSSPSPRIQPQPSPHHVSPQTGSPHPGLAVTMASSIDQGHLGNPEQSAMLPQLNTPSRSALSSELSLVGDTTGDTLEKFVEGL
Experiment: CBP degradation, HiBit technology in A549 CBP HiBit cells (24 h)
Format: cell-based
Conditions: 24 hrs post treatment
MEASURED ENDPOINT: DC50

Examples with their reported DC50 follow.
>  <MOLECULE>
Cn1c(=O)n(C)c2cc(N3CCCc4nc(-c5ccc(C(=O)NCC#Cc6cc7c(C8CCC(=O)NC8=O)cccc7o6)nc5)ncc43)ccc21 (stereo not drawn)

>  <DC50>
100 to 999 nM

$$$$
>  <MOLECULE>
CC(C)c1cc(N2CCCc3nc(-c4ccc(C(=O)NCC#Cc5ccc6occ(C7CCC(=O)NC7=O)c6c5)nc4)ncc32)cc2c1n(C)c(=O)n2C (stereo not drawn)

>  <DC50>
100 to 999 nM

$$$$
>  <MOLECULE>
Cn1c(=O)n(C)c2cc(N3CCOc4nc(-c5ccc(C(=O)NCC#Cc6cc7c(C8CCC(=O)NC8=O)cccc7o6)nc5)ncc43)ccc21 (stereo not drawn)

>  <DC50>
> 1000 nM

$$$$
>  <MOLECULE>
CC(C)c1cc(-c2cccc3cc(-c4ccc(C(=O)NCC#Cc5ccc6cnn(C7CCC(=O)NC7=O)c6c5)nc4)ncc23)cc2c1n(C)c(=O)n2C (stereo not drawn)

>  <DC50>
10 to 99 nM

$$$$

[in] Find the recorded DC50 belonging to CC(C)c1cc(N2CCOc3cc(-c4ccc(C(=O)NCC#Cc5ccc6occ(C7CCC(=O)NC7=O)c6c5)nc4)ncc32)cc2c1n(C)c(=O)n2C (stereo not drawn) and report it.
[out] > 1000 nM

[in] Find the recorded DC50 belonging to Cc1cc2c(N3CCCc4nc(-c5ccc(C(=O)NCC#Cc6ccc7occ(C8CCC(=O)NC8=O)c7c6)nc5)ncc43)cc(C3CCOCC3)nc2n(C)c1=O (stereo not drawn) and report it.
[out] 100 to 999 nM

* * *

Target: p300 (Homo sapiens)
Construct: host or cells: A549 P300 HiBit cells
Experiment: P300 degradation, HiBit technology in A549 P300 HiBit cells (2 h)
Assay type: cell-based
Details: A549, A549 P300 HiBit cells, 2 hrs post treatment
MEASURED ENDPOINT: Dmax

>  <MOLECULE>
Cc1cc(N2CCCc3nc(-c4ccc(C(=O)NCC#Cc5ccc6occ(C7CCC(=O)NC7=O)c6c5)nc4)ncc32)c2cc(C)c(=O)n(C)c2c1 (stereo not shown) [Example B151]

>  <EXPERIMENTAL TARGET>
p300 (Homo sapiens)

>  <Dmax>
> 80%

$$$$

[in] Notebook entry, p300 (Homo sapiens) assay: Dmax of Cn1c(=O)n(C)c2cc(-c3cccc4cc(-c5ccc(C(=O)NCC#Cc6cc7c([C@@H]8CCC(=O)NC8=O)cccc7o6)nc5)ncc34)ccc21 [Example A171] = ?
[out] > 80%

[in] Notebook entry, p300 (Homo sapiens) assay: Dmax of Cc1cc2c(-c3cccc4cc(-c5ccc(C(=O)NCC#Cc6ccc7occ(C8CCC(=O)NC8=O)c7c6)nc5)ncc34)nc(OC(C)C)cc2n(C)c1=O (stereo not shown) [Example B88] = ?
[out] > 80%

[in] Notebook entry, p300 (Homo sapiens) assay: Dmax of Cc1cc(-c2ncc3c(n2)CCCN3c2cc(C3CCOCC3)cc3c2cc(C)c(=O)n3C)cnc1C(=O)NCC#Cc1cc2c(C3CCC(=O)NC3=O)cccc2o1 (stereo not shown) [Example B141] = ?
[out] > 80%

[in] Notebook entry, p300 (Homo sapiens) assay: Dmax of Cc1cc(-c2cc3c(cc2C(F)F)N(c2ccc4c(c2)n(C)c(=O)n4C)CCC3)cnc1C(=O)NCC#Cc1ccc2occ(C3CCC(=O)NC3=O)c2c1 (stereo not shown) [Example A94] = ?
[out] > 80%

[in] Notebook entry, p300 (Homo sapiens) assay: Dmax of CC(C)c1cc(-c2cccc3cc(-c4ccc(C(=O)NCC#Cc5ccc6c(CN(C)C)nn(C7CCC(=O)NC7=O)c6c5)nc4)ncc23)cc2c1n(C)c(=O)n2C (stereo not shown) [Example A28] = ?
[out] 60 to 79%

[in] Notebook entry, p300 (Homo sapiens) assay: Dmax of Cc1cc2c(-c3cn(C)c(=O)c4cc(-c5ccc(C(=O)NCC#Cc6cc7c(C8CCC(=O)NC8=O)cccc7o6)nc5)ncc34)nc(N3CCOCC3)cc2n(C)c1=O (stereo not shown) [Example B131] = ?
[out] > 80%
